- Tested on: ATP;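 further: ATP exposure 15 min at 22 °C before imaging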
- PROTOCOL TEXT: switch fluorescence ratio, 500 uM ATP over buffer (Cy3 cluster intensity, sum of 5 cycles each) (fold (ratio)); higher = stronger signal-on switching upon ATP binding; sequences stand for … in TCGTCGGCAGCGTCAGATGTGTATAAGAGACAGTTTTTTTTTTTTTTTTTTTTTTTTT…TC
- MEASUREMENT PARAMETERS: aptamer strand: ATP DNA aptamer (quencher-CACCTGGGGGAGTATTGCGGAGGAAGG + anchor), 100 nM annealed; ATP concentration: 500 uM
EXPERIMENTAL READOUT: switch fluorescence ratio
Write the number on its own, no unit after it.

Given ATTATAACAG , state its recorded switch fluorescence ratio. 1.04

Further, for GTGTAAATTT ? 0.991

Now consider TGTAAAACTA . 1.02

Repeat for the following sequence: CGCTCTTGGA 0.976

Entry TAAGAGGCGC please 0.958

Also GGAGAAGAGA , if possible. 0.988

Also check TCGTTTGGAA 1

Check AGGGGAGGGT too. 1

Same question, CTGGGAACGG this time 0.965

What about this sequence? GAATGGGGGC 0.98

Do the same for GAGGTGGGCT please 1

Follow-up item: CGGGAAAAGA 1.58

Now consider GTCGATATTT and answer again. 1.01

How about this sequence: CGGGTCTCGA 1.03

And for GGTAGTTGTG ? 0.982

# repeat for GAACAGTCCG 1.05

---

- System: ATP;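 further: ATP exposure 15 min at 22 °C before imaging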
- PROTOCOL TEXT: switch fluorescence ratio, 500 uM ATP over buffer (Cy3 cluster intensity, sum of 5 cycles each) (fold (ratio)); higher = stronger signal-on switching upon ATP binding; sequences stand for … in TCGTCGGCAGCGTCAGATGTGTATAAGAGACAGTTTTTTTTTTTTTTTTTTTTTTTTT…TC
- MEASUREMENT PARAMETERS: aptamer strand: ATP DNA aptamer (quencher-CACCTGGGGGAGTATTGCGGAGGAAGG + anchor), 100 nM annealed; ATP concentration: 500 uM
Could you label it 1 (yes) if measured switch fluorescence ratio is 1 or higher, and 0 (no) otherwise?

In plain terms: is recorded switch fluorescence ratio at least 1 for CCTTTTAGCA ? 1 (yes)

Please answer likewise for GCACGAGCCC 1 (yes)

Then TAGCAGGGTC ? 1 (yes)

Moving on to ACTTCCGGG 1 (yes)

Another: TGTGTATCGG 0 (no)

Same read-out for CGCTTAGGGT ? 1 (yes)

---

- Test system: ATP;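 further: ATP exposure 15 min at 22 °C before imaging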
- PROTOCOL TEXT: switch fluorescence ratio, 500 uM ATP over buffer (Cy3 cluster intensity, sum of 5 cycles each) (fold (ratio)); higher = stronger signal-on switching upon ATP binding; sequences stand for … in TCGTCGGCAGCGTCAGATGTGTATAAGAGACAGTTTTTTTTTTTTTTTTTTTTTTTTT…TC
- MEASUREMENT PARAMETERS: aptamer strand: ATP DNA aptamer (quencher-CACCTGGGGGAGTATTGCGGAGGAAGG + anchor), 100 nM annealed; ATP concentration: 500 uM
Please respond with reported switch fluorescence ratio for every item in the list.
Reply: number alone, nothing else.

// switch fluorescence ratio lookup, key: CATTATGGGT 0.95

Param item: GGGGTGTATA 1

And TTTGCCGGG ? 1.02

Here is the next sequence: AGTGTTTAAA 0.969

// repeat for TGGGCAACTC and report 1.06

Please give the result for AAGTATGGGT too. 0.998

Similarly, TTTTTGGCGC ? 1.01

Item: TCGATCGGGT 0.991

Again, but for ATGGTTGTGT 0.983

Follow-up item: GATGGGCTAA 1.04

Moving on to TGAGTACAGC 1.03

How about GATGGTTCGC ? 0.976

Repeat for the following sequence: CATCGCTATG 1.1

Input GGTTTAGATG 1.02
